FYI, the data here is from paper PMC11855478.

- Test system: HCT-116 (Colon Cancer)
- procedure_summary: NCI one dose, HCT-116
- Type: cell-based, human
- assay_conditions: HCT-116, 1.00E-5 Molar one dose

compound_structure_string: COc1ccccc1CNC(=O)[C@@H]1CS[C@@]2(C)c3ccccc3C(=O)N12
Growth Percent / %: 99.72
--
compound_structure_string: COc1ccccc1CNC(=O)[C@@H]1CS[C@H]2c3ccccc3C(=O)N12
Growth Percent / %: 105.23
--
compound_structure_string: O=C(NCc1cccc(C(F)(F)F)c1)[C@@H]1CS[C@H]2c3ccccc3C(=O)N12
Growth Percent / %: 91.63
--
compound_structure_string: O=C(NCc1ccc(Cl)cc1Cl)[C@@H]1CS[C@H]2c3ccccc3C(=O)N12
Growth Percent / %: 83.47
--
compound_structure_string: O=C(NCc1ccccc1)[C@@H]1CS[C@H]2c3ccccc3C(=O)N12
Growth Percent / %: 87.66
--
compound_structure_string: COc1ccc(CNC(=O)[C@@H]2CS[C@@]3(C)c4ccccc4C(=O)N23)cc1
Growth Percent / %: 93.74
--
compound_structure_string: COc1cc(CNC(=O)[C@@H]2CS[C@@]3(C)c4ccccc4C(=O)N23)cc(OC)c1OC
Growth Percent / %: 98.10
--
compound_structure_string: C[C@@]12SC[C@@H](C(=O)NCc3cccc(C(F)(F)F)c3)N1C(=O)c1ccccc12
Growth Percent / %: 87.94
--
compound_structure_string: COc1ccc(CNC(=O)[C@@H]2CS[C@H]3c4ccccc4C(=O)N23)cc1
Growth Percent / %: 101.21
--
compound_structure_string: COc1ccc(CNC(=O)[C@@H]2CS[C@H]3c4ccccc4C(=O)N23)cc1OC
Growth Percent / %: 98.84
--
compound_structure_string: COc1cccc(CNC(=O)[C@@H]2CS[C@H]3c4ccccc4C(=O)N23)c1
Growth Percent / %: 102.32
--
compound_structure_string: C[C@@]12SC[C@@H](C(=O)NCc3ccc(Cl)cc3Cl)N1C(=O)c1ccccc12
Growth Percent / %: 96.09
--
compound_structure_string: C[C@@]12SC[C@@H](C(=O)NCc3ccccc3C(F)(F)F)N1C(=O)c1ccccc12
Growth Percent / %: 89.85
--
compound_structure_string: C[C@@]12SC[C@@H](C(=O)NCc3ccccc3)N1C(=O)c1ccccc12
Growth Percent / %: 97.31
--
compound_structure_string: COc1cccc(CNC(=O)[C@@H]2CS[C@@]3(C)c4ccccc4C(=O)N23)c1
Growth Percent / %: 104.89
--
compound_structure_string: O=C(NCc1ccccc1C(F)(F)F)[C@@H]1CS[C@H]2c3ccccc3C(=O)N12
Growth Percent / %: 87.63
--
compound_structure_string: COc1cc(CNC(=O)[C@@H]2CS[C@H]3c4ccccc4C(=O)N23)cc(OC)c1OC
Growth Percent / %: 92.64
--
compound_structure_string: C[C@@]12SC[C@@H](C(=O)NCc3ccccc3Br)N1C(=O)c1ccccc12
Growth Percent / %: 104.70
--
compound_structure_string: COc1ccc(CNC(=O)[C@@H]2CS[C@@]3(C)c4ccccc4C(=O)N23)cc1OC
Growth Percent / %: 95.39

---

# Growth Percent values compiled below
- Tested on: KM12 (Colon Cancer)
- procedure_summary: NCI one dose, KM12
- Assay type: cell-based, human
- assay_conditions: KM12, 1.00E-5 Molar one dose

compound: C[C@@]12SC[C@@H](C(=O)NCc3ccccc3C(F)(F)F)N1C(=O)c1ccccc12 [4bC]
Growth Percent, %: 100.49
--
compound: COc1cc(CNC(=O)[C@@H]2CS[C@@]3(C)c4ccccc4C(=O)N23)cc(OC)c1OC [4bJ]
Growth Percent, %: 106.18
--
compound: O=C(NCc1ccccc1C(F)(F)F)[C@@H]1CS[C@H]2c3ccccc3C(=O)N12 [4aC]
Growth Percent, %: 102.90
--
compound: COc1ccc(CNC(=O)[C@@H]2CS[C@@]3(C)c4ccccc4C(=O)N23)cc1OC [4bI]
Growth Percent, %: 102.81
--
compound: COc1ccc(CNC(=O)[C@@H]2CS[C@H]3c4ccccc4C(=O)N23)cc1OC [4aI]
Growth Percent, %: 107.09
--
compound: C[C@@]12SC[C@@H](C(=O)NCc3ccccc3Br)N1C(=O)c1ccccc12 [4bB]
Growth Percent, %: 100.14
--
compound: O=C(NCc1ccc(Cl)cc1Cl)[C@@H]1CS[C@H]2c3ccccc3C(=O)N12 [4aH]
Growth Percent, %: 99.99
--
compound: COc1cccc(CNC(=O)[C@@H]2CS[C@@]3(C)c4ccccc4C(=O)N23)c1 [4bE]
Growth Percent, %: 107.56
--
compound: COc1ccccc1CNC(=O)[C@@H]1CS[C@@]2(C)c3ccccc3C(=O)N12 [4bG]
Growth Percent, %: 103.74
--
compound: O=C(NCc1ccccc1)[C@@H]1CS[C@H]2c3ccccc3C(=O)N12 [4aA]
Growth Percent, %: 110.51
--
compound: COc1ccc(CNC(=O)[C@@H]2CS[C@@]3(C)c4ccccc4C(=O)N23)cc1 [4bF]
Growth Percent, %: 96.53
--
compound: C[C@@]12SC[C@@H](C(=O)NCc3ccccc3)N1C(=O)c1ccccc12 [4bA]
Growth Percent, %: 102.18
--
compound: COc1ccc(CNC(=O)[C@@H]2CS[C@H]3c4ccccc4C(=O)N23)cc1 [4aF]
Growth Percent, %: 100.55
--
compound: C[C@@]12SC[C@@H](C(=O)NCc3cccc(C(F)(F)F)c3)N1C(=O)c1ccccc12 [4bD]
Growth Percent, %: 99.50

---

# Delta (One Dose Mean Graph) values compiled below
- Test system: panel of 60 human cancer cell lines
- procedure_summary: NCI 60 cell panel one dose screen (whole panel)
- Type: cell-based
- Design: unit not given here
- assay_conditions: 1.00E-5 Molar one dose

compound_structure_string: COc1ccc(CNC(=O)[C@@H]2CS[C@H]3c4ccccc4C(=O)N23)cc1
Delta (One Dose Mean Graph): 26.11

compound_structure_string: C[C@@]12SC[C@@H](C(=O)NCc3ccccc3)N1C(=O)c1ccccc12
Delta (One Dose Mean Graph): 22.99

compound_structure_string: COc1cc(CNC(=O)[C@@H]2CS[C@H]3c4ccccc4C(=O)N23)cc(OC)c1OC
Delta (One Dose Mean Graph): 15.66

compound_structure_string: COc1cc(CNC(=O)[C@@H]2CS[C@@]3(C)c4ccccc4C(=O)N23)cc(OC)c1OC
Delta (One Dose Mean Graph): 27.08

compound_structure_string: C[C@@]12SC[C@@H](C(=O)NCc3cccc(C(F)(F)F)c3)N1C(=O)c1ccccc12
Delta (One Dose Mean Graph): 25.48

compound_structure_string: C[C@@]12SC[C@@H](C(=O)NCc3ccc(Cl)cc3Cl)N1C(=O)c1ccccc12
Delta (One Dose Mean Graph): 23.83

compound_structure_string: O=C(NCc1ccccc1)[C@@H]1CS[C@H]2c3ccccc3C(=O)N12
Delta (One Dose Mean Graph): 20.43

compound_structure_string: O=C(NCc1cccc(C(F)(F)F)c1)[C@@H]1CS[C@H]2c3ccccc3C(=O)N12
Delta (One Dose Mean Graph): 22.37

compound_structure_string: COc1ccccc1CNC(=O)[C@@H]1CS[C@H]2c3ccccc3C(=O)N12
Delta (One Dose Mean Graph): 31.67

compound_structure_string: COc1ccccc1CNC(=O)[C@@H]1CS[C@@]2(C)c3ccccc3C(=O)N12
Delta (One Dose Mean Graph): 28.52

---

- Test system: HS 578T (Breast Cancer)
- procedure_summary: NCI one dose, HS 578T
- Type: cell-based, human
- assay_conditions: 1.00E-5 Molar one dose
value_kind: Growth Percent (%)

compound_structure_string: COc1cc(CNC(=O)[C@@H]2CS[C@@]3(C)c4ccccc4C(=O)N23)cc(OC)c1OC
tested_on: HS 578T (Breast Cancer)
observed_result: 94.07
--
compound_structure_string: COc1ccc(CNC(=O)[C@@H]2CS[C@@]3(C)c4ccccc4C(=O)N23)cc1
tested_on: HS 578T (Breast Cancer)
observed_result: 96.39
--
compound_structure_string: COc1ccccc1CNC(=O)[C@@H]1CS[C@@]2(C)c3ccccc3C(=O)N12
tested_on: HS 578T (Breast Cancer)
observed_result: 95.65
--
compound_structure_string: COc1ccccc1CNC(=O)[C@@H]1CS[C@H]2c3ccccc3C(=O)N12
tested_on: HS 578T (Breast Cancer)
observed_result: 96.02
--
compound_structure_string: C[C@@]12SC[C@@H](C(=O)NCc3ccccc3Br)N1C(=O)c1ccccc12
tested_on: HS 578T (Breast Cancer)
observed_result: 91.10
--
compound_structure_string: O=C(NCc1ccc(Cl)cc1Cl)[C@@H]1CS[C@H]2c3ccccc3C(=O)N12
tested_on: HS 578T (Breast Cancer)
observed_result: 113.78
--
compound_structure_string: C[C@@]12SC[C@@H](C(=O)NCc3ccccc3)N1C(=O)c1ccccc12
tested_on: HS 578T (Breast Cancer)
observed_result: 100.47
--
compound_structure_string: COc1ccc(CNC(=O)[C@@H]2CS[C@H]3c4ccccc4C(=O)N23)cc1OC
tested_on: HS 578T (Breast Cancer)
observed_result: 98.06
--
compound_structure_string: COc1cccc(CNC(=O)[C@@H]2CS[C@@]3(C)c4ccccc4C(=O)N23)c1
tested_on: HS 578T (Breast Cancer)
observed_result: 95.18
--
compound_structure_string: COc1cccc(CNC(=O)[C@@H]2CS[C@H]3c4ccccc4C(=O)N23)c1
tested_on: HS 578T (Breast Cancer)
observed_result: 98.68
--
compound_structure_string: COc1cc(CNC(=O)[C@@H]2CS[C@H]3c4ccccc4C(=O)N23)cc(OC)c1OC
tested_on: HS 578T (Breast Cancer)
observed_result: 101.31
--
compound_structure_string: COc1ccc(CNC(=O)[C@@H]2CS[C@H]3c4ccccc4C(=O)N23)cc1
tested_on: HS 578T (Breast Cancer)
observed_result: 104.20
--
compound_structure_string: C[C@@]12SC[C@@H](C(=O)NCc3ccc(Cl)cc3Cl)N1C(=O)c1ccccc12
tested_on: HS 578T (Breast Cancer)
observed_result: 91.90
--
compound_structure_string: COc1ccc(CNC(=O)[C@@H]2CS[C@@]3(C)c4ccccc4C(=O)N23)cc1OC
tested_on: HS 578T (Breast Cancer)
observed_result: 94.35
